Entry source: the supplement of paper PMC7877785

experiment: self-splicing fitness, log relative to wild type (ln ratio); higher = more splicing; Tetrahymena group I intron in knt gene, E. coli kanamycin selection, DiMSum; sequences stand for … in CUCUCU…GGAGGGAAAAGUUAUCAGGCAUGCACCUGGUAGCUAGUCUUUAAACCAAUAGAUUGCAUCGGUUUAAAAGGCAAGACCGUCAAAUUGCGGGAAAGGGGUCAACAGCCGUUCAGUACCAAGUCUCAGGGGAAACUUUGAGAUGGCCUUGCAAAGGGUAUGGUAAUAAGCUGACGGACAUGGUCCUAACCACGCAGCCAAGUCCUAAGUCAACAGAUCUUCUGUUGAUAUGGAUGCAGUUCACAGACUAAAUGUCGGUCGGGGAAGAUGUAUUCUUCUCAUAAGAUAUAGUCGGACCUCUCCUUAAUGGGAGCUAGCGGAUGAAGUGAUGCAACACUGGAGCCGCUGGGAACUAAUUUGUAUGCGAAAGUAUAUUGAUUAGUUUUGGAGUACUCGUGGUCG; conditions: 30 °C;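 further: selection with 25 µg/mL kanamycin versus none on LB agar overnight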
Recorded self-splicing fitness (ln), one value per entry.
Endpoint: self-splicing fitness (ln)

INSERT INTO measurements (polymer_sequence, endpoint, val) VALUES
  ('ACGUAGCAAUAUUACGUGCG', 'self-splicing fitness (ln)', -2.19),
  ('ACGUAGCAAUAUUACGGAAA', 'self-splicing fitness (ln)', -2.27),
  ('AUCCAGCAAUAUUACGUAGC', 'self-splicing fitness (ln)', -2.3),
  ('CUAAAGCAAUAUUACGGGCA', 'self-splicing fitness (ln)', -3.06),
  ('CAUUAGCAAUAUUACGAACG', 'self-splicing fitness (ln)', 0.479),
  ('CAGAAGCAAUAUUACGUAUA', 'self-splicing fitness (ln)', -3.84),
  ('CUGUAGCAAUAUUACGCAAU', 'self-splicing fitness (ln)', -2.63),
  ('GUUAAGCAAUAUUACGAUCG', 'self-splicing fitness (ln)', -2.08),
  ('AAGUAGCAAUAUUACGCAUA', 'self-splicing fitness (ln)', -1.31),
  ('GCUGAGCAAUAUUACGGUCC', 'self-splicing fitness (ln)', -2.99),
  ('UUGAAGCAAUAUUACGUCGU', 'self-splicing fitness (ln)', -1.04),
  ('CGUUAGCAAUAUUACGGAGU', 'self-splicing fitness (ln)', -4.73),
  ('GAUAAGCAAUAUUACGUGUC', 'self-splicing fitness (ln)', -2.29),
  ('GUAGAGCAAUAUUACGACUA', 'self-splicing fitness (ln)', -0.724),
  ('UAAAAGCAAUAUUACGUCGU', 'self-splicing fitness (ln)', -3.29),
  ('AACAAGCAAUAUUACGGGGG', 'self-splicing fitness (ln)', -2.94);
